# assayed.system: human dopamine D2L receptors (long isoform) (Homo sapiens)
# Sequence (P14416 whole entry, canonical isoform): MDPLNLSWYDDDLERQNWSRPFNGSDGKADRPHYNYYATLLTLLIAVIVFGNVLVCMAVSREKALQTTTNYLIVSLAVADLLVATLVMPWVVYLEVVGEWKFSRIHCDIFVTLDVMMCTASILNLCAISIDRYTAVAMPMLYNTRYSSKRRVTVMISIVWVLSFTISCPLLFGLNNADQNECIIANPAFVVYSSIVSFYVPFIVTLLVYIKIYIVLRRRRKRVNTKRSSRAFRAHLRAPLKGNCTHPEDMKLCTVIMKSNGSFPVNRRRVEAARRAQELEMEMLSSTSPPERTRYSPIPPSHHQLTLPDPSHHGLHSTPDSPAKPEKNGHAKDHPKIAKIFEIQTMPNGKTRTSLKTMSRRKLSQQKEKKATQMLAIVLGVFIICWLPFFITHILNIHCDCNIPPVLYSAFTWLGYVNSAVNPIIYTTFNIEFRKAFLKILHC
# assay.protocol: Dopamine D2L receptor binding, displacement of [125I] iodospiperone
# measurement.parameters: membranes of HEK-293 cells stably expressing human D2L; 0.01 nM [125I] iodospiperone; 25° C., 60 minutes; read-out: Ki(D2)*
pKi: −log10 of the molar value.
Tag: 1 if measured pKi is not below 7, -1 if it is.

# bool: pKi of CCCN1CC[C@@H](c2ccc(NS(=O)(=O)c3ccc([C@H](C)CF)cc3)cc2)C1 [Example 87] >= 7 1

# bool: pKi of CC(C)c1ccc(S(=O)(=O)Nc2ccc([C@@H]3CCN(CC4CC4)C3)cc2)cc1 [Example 94] >= 7 1

# bool: pKi of CCN1CC[C@@H](c2ccc(NS(=O)(=O)c3ccc(OC(F)(F)F)cc3)cc2)C1 [Example 104] >= 7 -1

# bool: pKi of CCCN1CC[C@@H](c2ccc(NS(=O)(=O)c3ccc(N4CCOCC4)cc3)cc2)C1.Cl [Example 120, hydrochloride] >= 7 -1

# bool: pKi of O=S(=O)(Nc1ccc([C@@H]2CCNC2)cc1)c1ccc(CCCF)cc1 [Example 108] >= 7 -1

# bool: pKi of CCCN1CC[C@@H](c2ccc(NS(=O)(=O)c3ccc(Cl)cc3)cc2)C1 [Example 13] >= 7 -1

# bool: pKi of C=CCN1CC[C@@H](c2ccc(NS(=O)(=O)c3ccc(C(C)C)cc3)cc2)C1.Cl [Example 3, hydrochloride] >= 7 1

# bool: pKi of CC(C)c1ccc(S(=O)(=O)Nc2ccc([C@@H]3CCN(CCCF)C3)cc2)cc1 [Example 38] >= 7 1

# bool: pKi of CCCN1CC[C@@H](c2ccccc2NS(=O)(=O)c2ccc(-c3cnco3)cc2)C1 [Example 71] >= 7 1

# bool: pKi of CCCN1CC[C@@H](c2ccc(NS(=O)(=O)c3ccc(C4CC4)cc3)cc2)C1 [Example 27] >= 7 1

# bool: pKi of CCCN1CC[C@@H](c2ccc(NS(=O)(=O)c3ccc(-c4ccno4)s3)cc2)C1 [Example 80] >= 7 -1

# bool: pKi of CCCN1CC[C@@H](c2ccc(NS(=O)(=O)c3ccc(CC)cc3)cc2)C1.Cl [Example 6, hydrochloride] >= 7 1

# bool: pKi of O=S(=O)(Nc1ccc([C@@H]2CCNC2)cc1)c1ccc(OC(F)(F)F)cc1 [Example 102] >= 7 -1

# bool: pKi of CCCN1CC(c2ccc(NS(=O)(=O)c3ccc(CC(F)(F)F)cc3)cc2)C1 [Example 62] >= 7 -1

# bool: pKi of CCCN1CC[C@H](c2ccc(NS(=O)(=O)c3ccc(C(C)C)cc3)cc2)C1.Cl [Example 5, hydrochloride] >= 7 -1

# bool: pKi of CCCN1CC(c2ccc(NS(=O)(=O)c3ccc(Br)cc3)cc2)C1 [Example 58] >= 7 -1

# bool: pKi of CCCN1CC[C@@H](c2ccc(NS(=O)(=O)c3ccc(C(C)C)cc3F)cc2)C1 [Example 21] >= 7 1

# bool: pKi of CCCN1CC[C@@H](c2ccc(NS(=O)(=O)c3ccc(C4CC4(F)F)cc3)cc2)C1 (stereo partly shown) [Example 41] >= 7 1

# bool: pKi of CCCN1CC[C@@H](c2ccc(NS(=O)(=O)c3ccc(N4CCCC4=O)cc3)cc2)C1 [Example 72] >= 7 -1

All figures here come from patent US8470810B2.
